The origin of these recorded values is patent US20170362324A1.

# Measurement target: T1, human soluble αvβ5 protein (extracellular domains of human αv and β5 integrin subunits) (human, UniProt P06756 31-992; P18084 24-719)
# T1 construct: also called biotin-αvβ5; hsαvβ5
# T1 sequence (P06756 31-992 limits assumed, chain 1 of 2): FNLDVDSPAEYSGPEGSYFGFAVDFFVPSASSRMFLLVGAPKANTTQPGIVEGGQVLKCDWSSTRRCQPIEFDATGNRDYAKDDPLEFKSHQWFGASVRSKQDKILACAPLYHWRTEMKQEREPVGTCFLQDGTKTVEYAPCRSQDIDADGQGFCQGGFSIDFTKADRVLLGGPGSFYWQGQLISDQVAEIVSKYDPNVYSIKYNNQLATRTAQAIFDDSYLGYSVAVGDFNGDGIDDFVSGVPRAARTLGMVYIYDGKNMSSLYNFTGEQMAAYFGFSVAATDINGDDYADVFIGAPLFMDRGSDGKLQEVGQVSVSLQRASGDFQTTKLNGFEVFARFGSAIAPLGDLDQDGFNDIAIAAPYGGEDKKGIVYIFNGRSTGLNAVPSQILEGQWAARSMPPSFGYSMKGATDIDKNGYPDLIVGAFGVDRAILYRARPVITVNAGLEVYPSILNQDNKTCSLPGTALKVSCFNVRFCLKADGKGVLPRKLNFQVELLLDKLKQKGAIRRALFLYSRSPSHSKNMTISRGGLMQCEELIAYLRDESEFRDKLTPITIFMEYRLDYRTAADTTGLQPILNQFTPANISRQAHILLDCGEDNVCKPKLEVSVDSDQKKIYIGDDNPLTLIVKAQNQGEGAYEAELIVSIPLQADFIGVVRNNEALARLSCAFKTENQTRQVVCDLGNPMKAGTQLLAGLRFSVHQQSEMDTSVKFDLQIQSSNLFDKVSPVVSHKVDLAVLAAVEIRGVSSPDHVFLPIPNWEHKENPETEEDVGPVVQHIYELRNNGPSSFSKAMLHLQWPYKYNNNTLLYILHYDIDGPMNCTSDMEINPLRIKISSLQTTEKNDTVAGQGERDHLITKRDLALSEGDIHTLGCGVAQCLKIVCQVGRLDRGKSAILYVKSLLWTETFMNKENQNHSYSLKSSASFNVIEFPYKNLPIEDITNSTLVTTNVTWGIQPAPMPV
# T1 sequence (P18084 24-719 limits assumed, chain 2 of 2): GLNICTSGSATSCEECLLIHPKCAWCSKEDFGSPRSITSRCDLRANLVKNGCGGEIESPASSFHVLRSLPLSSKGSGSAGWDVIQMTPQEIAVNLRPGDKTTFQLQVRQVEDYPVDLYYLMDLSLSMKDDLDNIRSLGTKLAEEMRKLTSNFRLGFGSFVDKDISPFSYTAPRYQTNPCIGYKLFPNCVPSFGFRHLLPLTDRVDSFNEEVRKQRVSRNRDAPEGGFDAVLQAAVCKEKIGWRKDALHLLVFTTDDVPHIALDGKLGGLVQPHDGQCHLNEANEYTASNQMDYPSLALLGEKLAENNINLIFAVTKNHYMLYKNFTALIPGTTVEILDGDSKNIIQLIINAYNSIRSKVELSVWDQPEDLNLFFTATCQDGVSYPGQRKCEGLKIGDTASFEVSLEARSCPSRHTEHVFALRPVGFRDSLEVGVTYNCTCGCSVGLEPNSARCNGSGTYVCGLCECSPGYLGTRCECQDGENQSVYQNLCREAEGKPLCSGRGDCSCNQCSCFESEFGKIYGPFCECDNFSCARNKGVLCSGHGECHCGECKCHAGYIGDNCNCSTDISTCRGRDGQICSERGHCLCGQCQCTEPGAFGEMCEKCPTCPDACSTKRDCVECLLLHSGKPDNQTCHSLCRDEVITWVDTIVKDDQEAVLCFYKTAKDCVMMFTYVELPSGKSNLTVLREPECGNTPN
# Assay details: ALULA competition ELISA on soluble human αvβ5
# Procedure: Competition ELISA: A 96-well microtiter plate was coated with 50 μl/well of 5 μg/mL soluble human αvβ5 protein at 4° C. overnight. The plate was washed with wash buffer (0.05% Tween-20 in PBS) four times in an automated plate washer. 300 μl/well of 1% BSA in PBS was added and incubated for 1 hr at 25° C. to block nonspecific binding. […] Bound antibody was detected using 3,3′,5,5′-tetramethylbenzidine (TMB). Binding was indicated by the absorbency measured at 450 nm. […]
pIC50: −log10 of the molar value.

Binder: Mouse chimeric ALULA (murine ALULA variable domains fused to human IgG1 heavy chain and human kappa light chain domains) (antibody, V domains shown, also called chimeric form of ALULA; chimeric murine antibody) VH: EVQVQQSGTVLARPGASVKMSCKASGYTFTSYWMHWVKQRPGQGLEWIGAIYPGNSDTSYNQKFKGKAKLTAVTSPNTAYMELSSLTNEDSAVYYCTTTTYGYDWFAYWGQGTLVTVSA VL: NIMMTQSPSSLTVSAGEKVTMSCKSSQSVLYSSNQKNYLAWYQQKPGQSPKLLIYWASTRESGVPDRFTGSGSGTDFTLTISSVQAEDLAVYYCHQYLSSLTFGAGTKLELK
pIC50: 8.74
